Target: T1, fusion protein glutathione-S-transferase-Bcl-W (UniProt P08515 1-218 = GST; Q92843 1-171)
T1 construct: also called GST-Bcl-W
T1 sequence (P08515 1-218, tags or fused parts left off): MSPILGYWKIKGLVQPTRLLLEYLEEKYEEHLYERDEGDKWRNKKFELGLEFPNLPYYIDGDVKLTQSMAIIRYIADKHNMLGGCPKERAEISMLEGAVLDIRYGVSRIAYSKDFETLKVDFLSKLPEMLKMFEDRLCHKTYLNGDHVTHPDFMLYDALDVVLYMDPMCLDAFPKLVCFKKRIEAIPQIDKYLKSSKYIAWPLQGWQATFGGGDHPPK
Test: fluorescence polarisation, 15 nM fluorescein-peptide, GST-Bcl-W titrated 1 nM to 5 uM
No end group written: not given here. fluorescein = fluorescein label at the N-terminal end
VALUE_KIND: pKd
Answers are plain numbers, as −log10 of the molar value.

So, fluorescein-DTRRSMVFARHLREVGDEFRSR (Used at 15 nM in fluorescence polarisation; also called ID; NO.1) [peptide obtained in Example 1 labelled with fluorescein at the N-terminal end] ? Its pKd was 6.39
